Origin of measurements: paper PMC4472782

Test system: MRSP SP3
Test: Post-antibiotic effect against MRSP
Assay type: cell-based, Staphylococcus pseudintermedius
Settings: 4 × MIC for one hour
Description: A tube containing untreated bacterial cells served as a control. Afterward, the compound/antibiotic was washed out by diluting bacteria 1:1000 in MHB. Counts of CFU for all cultures were obtained after washing. Aliquots (100 μL) of bacteria were removed every hour (for 10 hours), serially diluted in PBS, and plated on TSA plates. TSA plates were incubated for 20 hours at 37°C before CFU values were determined.
test-readout: Post-antibiotic Effect

compound | Post-antibiotic Effect
C/C(=N\NC(=N)N)c1sc(-c2ccc(-c3ccc(F)cc3)cc2)nc1C [Compound 4] | >9 h

Next:
Give the measured Post-antibiotic Effect of CO[C@H]1/C=C/O[C@@]2(C)Oc3c(C)c(O)c4c(O)c(c(/C=N/N5CCN(C)CC5)c(O)c4c3C2=O)NC(=O)/C(C)=C\C=C\[C@H](C)[C@H](O)[C@@H](C)[C@@H](O)[C@@H](C)[C@H](OC(C)=O)[C@@H]1C [Rifampicin, rifampicin, reference compound] .
>9 h
